ASSAY_PROTOCOL: chemical genetic growth profiling, strain panel (AID 1159580);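 also: tested at 20 µM; growth read once vehicle control cultures reached saturation at 30 °C; 1 = growth at the plate median or of vehicle wells; lower values mean less growth of the strain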
PROTOCOL_CONDITIONS: S. cerevisiae deletion strains, growth OD, locus YJR066W, strain TOR1, stronger effect = lower value
Among all 5,500 compounds or so, about 2,000 (36%) were called active. Roughly 18% stayed inconclusive and do not appear here. The list shows a part of the results.
normalized growth reference
PARAMETER: normalized growth

{"COMPOUND": "CCCc1cnc(N2CCN(CC(=O)N(c3ccccc3)C3CCCCC3)CC2)nc1", "READOUT_VALUE": 1.07}
{"COMPOUND": "NC(=O)CC[C@@H](N)C(=O)O", "READOUT_VALUE": 1}
{"COMPOUND": "CC(C)(C)c1cc2nc(C(F)(F)F)cc(NNC(=O)c3ccc(Cl)cc3)n2n1", "READOUT_VALUE": 1.05}
{"COMPOUND": "CCCN1C[C@H](CSC)C[C@@H]2c3cccc4[nH]cc(c34)C[C@H]21", "READOUT_VALUE": 0.985}
{"COMPOUND": "COc1cc([C@@H]2c3cc4c(cc3C(O[C@@H]3O[C@@H]5CO[C@@H](c6cccs6)OC5[C@H](O)[C@H]3O)C3COC(=O)[C@@H]32)OCO4)cc(OC)c1O (stereo partly specified)", "READOUT_VALUE": 0.99}
{"COMPOUND": "COc1cc([C@@H]2c3cc4c(cc3[C@H](OC(C)=O)[C@H]3COC(=O)[C@H]23)OCO4)cc(OC)c1OC", "READOUT_VALUE": 0.932}
{"COMPOUND": "Cc1ccc(C(O)(c2ccccc2)c2ccccc2)c2ccccc12", "READOUT_VALUE": 1.01}
{"COMPOUND": "CC(C(=O)O)[C@H]1CCC2C3CC=C4C[C@@H](O)CC[C@]4(C)C3CC[C@@]21C (stereo partly specified)", "READOUT_VALUE": 0.98}
{"COMPOUND": "CC(C)(C)c1csc(NNC(=O)c2ccc(Cl)cc2)n1", "READOUT_VALUE": 0.904}
{"COMPOUND": "CC(=O)C1CCC2C3CC=C4CC(OS(=O)(=O)O)CC[C@]4(C)C3CC[C@]12C (stereo partly specified)", "READOUT_VALUE": 0.877}
{"COMPOUND": "N/C(CSc1ccc(Cl)cc1)=N/OC(=O)c1ccc(C(F)(F)F)cc1", "READOUT_VALUE": 0.651}
{"COMPOUND": "CC1=CCc2c(cc3oc(C)cc(=O)c3c2O)OC1", "READOUT_VALUE": 0.915}
{"COMPOUND": "COc1cc(-c2coc3cc(O)c(OC)c(O)c3c2=O)cc(O)c1OC", "READOUT_VALUE": 0.969}
{"COMPOUND": "O=C(O)c1cn(-c2ccc(F)cc2)c2cc(N3CCNCC3)c(F)cc2c1=O", "READOUT_VALUE": 0.985}
{"COMPOUND": "CN(N=O)C(=O)N[C@@H]1[C@@H](O)[C@H](O)[C@@H](CO)O[C@@H]1O", "READOUT_VALUE": 0.99}
{"COMPOUND": "CC1=C2C(=CO[C@H](C)[C@H]2C)C(=O)C(C(=O)O)=C1O", "READOUT_VALUE": 0.799}
{"COMPOUND": "CC(=O)OCC(=O)[C@H]1CCC2C3CC=C4C[C@@H](O)CC[C@]4(C)C3CC[C@@]21C (stereo partly specified)", "READOUT_VALUE": 0.913}
{"COMPOUND": "CCC(CCC(C)[C@H]1CCC2C3CC=C4C[C@@H](O)CC[C@]4(C)C3CC[C@@]21C)C(C)C (stereo partly specified)", "READOUT_VALUE": 0.915}
{"COMPOUND": "COC(=O)C1=C(C)NC(C)=C(C(=O)OCC(C)C)C1c1ccccc1[N+](=O)[O-] (stereo unspecified)", "READOUT_VALUE": 0.57}
{"COMPOUND": "COCCOC(=O)C1=C(C)NC(C)=C(C(=O)OC(C)C)C1c1cccc([N+](=O)[O-])c1 (stereo unspecified)", "READOUT_VALUE": 0.946}
{"COMPOUND": "NCC(=O)CCC(=O)O", "READOUT_VALUE": 0.986}
{"COMPOUND": "C#Cc1cccc(N=Cc2cc(Cl)cc(Br)c2O)c1", "READOUT_VALUE": 0.137}
{"COMPOUND": "OC1C(O)C(O)C(O)C(O)C1O (stereo unspecified)", "READOUT_VALUE": 0.956}
{"COMPOUND": "COc1cc([C@@H]2c3cc4c(cc3[C@H](O)[C@H]3COC(=O)[C@@H]23)OCO4)cc(OC)c1OC", "READOUT_VALUE": 0.917}
{"COMPOUND": "O=C(O)c1nc2cc(Cl)c(Cl)cc2[nH]c1=O", "READOUT_VALUE": 0.985}
{"COMPOUND": "COc1cc2c(cc1OC)-c1cc3ccc(OC)c(OC)c3c[n+]1CC2", "READOUT_VALUE": 0.965}
{"COMPOUND": "CC(C)(C)c1csc(NC(=O)Nc2ccc(Cl)cc2)n1", "READOUT_VALUE": 0.452}
{"COMPOUND": "Cn1nnnc1SCC1=C(C(=O)O)N2C(=O)C(NC(=O)C(O)c3ccccc3)C2SC1 (stereo unspecified)", "READOUT_VALUE": 0.938}
{"COMPOUND": "NS(=O)(=O)c1cc2c(cc1C(F)(F)F)NCNS2(=O)=O", "READOUT_VALUE": 0.928}
{"COMPOUND": "CCC(/C=C/[C@@H](C)[C@H]1CCC2C3CC=C4C[C@@H](O)CC[C@]4(C)C3CC[C@@]21C)C(C)C (stereo partly specified)", "READOUT_VALUE": 0.929}
{"COMPOUND": "CC(=O)[C@H]1CCC2C3CC=C4C[C@@H](OC(=O)CCC(=O)O)CC[C@]4(C)C3CC[C@@]21C (stereo partly specified)", "READOUT_VALUE": 0.942}
{"COMPOUND": "CCOC(=O)C1C(C=C(C)C)C1(C)C (stereo unspecified)", "READOUT_VALUE": 0.991}
{"COMPOUND": "O=C(O)/C=C(\\CC(=O)O)C(=O)O", "READOUT_VALUE": 0.972}
{"COMPOUND": "C[n+]1cc2c3c(ccc2c2ccc4cc5c(cc4c21)OCO5)OCO3", "READOUT_VALUE": 0.931}
{"COMPOUND": "Cc1cc(C(=O)N(c2ccccc2)C(C)C2CC2)c(Cl)cc1Cl (stereo unspecified)", "READOUT_VALUE": 1.03}
{"COMPOUND": "O=C1c2ccccc2O[C@@H](c2ccccc2)[C@@H]1NCc1ccccc1", "READOUT_VALUE": 0.864}
{"COMPOUND": "[N-]=[N+]=CC(=O)OCC(N)C(=O)O (stereo unspecified)", "READOUT_VALUE": 0.936}
{"COMPOUND": "CN(C(=O)N(C)c1ccc(Cl)cc1C(=O)c1ccccc1Cl)c1ccc(Cl)cc1C(=O)c1ccccc1Cl", "READOUT_VALUE": 0.381}
{"COMPOUND": "COc1ccc2cc3[n+](cc2c1OC)CCc1cc2c(cc1-3)OCO2", "READOUT_VALUE": 0.765}
{"COMPOUND": "N[C@@H]1CONC1=O", "READOUT_VALUE": 0.979}
{"COMPOUND": "COc1cc2cc[n+]3cc4c(OC)c(OC)ccc4cc3c2cc1OC", "READOUT_VALUE": 0.976}

Where these numbers come from: PubChem BioAssay AID1159580
